- System: mouse long-term hematopoietic stem cells
- protocol: Reproducibility and concentration dependence test: 1-week culture of sorted Hoxb5-tri-mCherry mouse long-term hematopoietic stem cells, flow cytometry
- Assay type: cell-based
- experimentalConditions: Table 4; compound 3 μM; day 7 of culture; n=2
measuredProperty: Viable cell count (cell)
I only need the number, in cell, no unit after it.

Guide cases for Viable cell count, answers given:
>  <testSmiles>
CO[C@@H]1O[C@@H]2O[C@@]3(C)CC[C@H]4[C@H](C)CC[C@@H]([C@H]1C)[C@@]24OO3

>  <unitOfMeasurement>
cell

>  <Viable cell count>
104.5

$$$$
>  <testSmiles>
CC(=O)O[C@@H]1O[C@@H]2O[C@@]3(C)CC[C@H]4[C@H](C)CC[C@@H]([C@H]1C)[C@@]24OO3

>  <unitOfMeasurement>
cell

>  <Viable cell count>
1.0

$$$$

Next compound, please.
Provide value of Viable cell count for this record tested with mouse long-term hematopoietic stem cells: C[C@H]1[C@H](Oc2ccccc2)O[C@@H]2O[C@@]3(C)CC[C@H]4[C@H](C)CC[C@@H]1[C@@]24OO3
0.5
